B1: C10orf62 (parent)
chain: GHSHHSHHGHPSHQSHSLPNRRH

Variants of: B1
Assay: protein stability index of a GFP-peptide fusion (GPS, HEK-293T) (PSI 1-6); higher = more stable;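 also: lentivirally expressed fusions sorted by FACS into six bins by GFP to DsRed ratio, PSI derived from sequencing read proportions per bin multiplied by bin number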
Conditions: c terminus: native
# label = satisfied if protein stability index >= 3 else not satisfied

VARIANT_KEY: H4G
QUALITATIVE_LABEL: satisfied

VARIANT_KEY: S15M
QUALITATIVE_LABEL: not satisfied

VARIANT_KEY: H13W
QUALITATIVE_LABEL: not satisfied

VARIANT_KEY: N20K
QUALITATIVE_LABEL: satisfied

Confirm if protein stability index reported for the variant H2P is 3 or above.
not satisfied

Do the same for H23Q please
not satisfied

Do the same for R21N please
not satisfied

Do the same for H8Y please
satisfied

Do the same for L18T please
not satisfied

Do the same for G1D please
not satisfied

Do the same for N20E please
satisfied

Do the same for P11W please
not satisfied

Do the same for R21Y please
not satisfied

Do the same for S12T please
not satisfied

Do the same for S6E please
not satisfied

Do the same for H7C please
not satisfied
